Form field: viability, T/C (one value per entry).
System: 628569-122-R-J1-PDC complex spheroid viability
ASSAY: Anticancer human tumor 628569-122-R-J1-PDC patient-derived head and neck squamous carcinoma cell line growth inhibition [CLK]
STATED CONDITIONS: second compound 1 µM; first compound 0.0316 µM; stronger effect = lower value
Text: A high-throughput screen of multi-cell type tumor spheroids was designed to identify active combinations of […] and targeted small molecules. Complex spheroids include a stromal component modeled by human endothelial cells (HUVEC) and fibroblasts modeled by human mesenchymal stem cells (MSCs). […] Compounds. […] If the clinical Cmax for an agent had not been determined, the highest concentration tested was 10 microM. […]
Expressed in %, but write only the number.

# return recorded viability, T/C for entry CC1(C)CCC(CN2CCN(c3ccc(C(=O)NS(=O)(=O)c4ccc(NCC5CCOCC5)c([N+](=O)[O-])c4)c(Oc4cnc5[nH]ccc5c4)c3)CC2)=C(c2ccc(Cl)cc2)C1 + CN1CCN(c2cc(C(=O)Nc3cc4cc(-c5cnn(C)c5)ccc4cn3)ccn2)CC1
10.8

# return recorded viability, T/C for entry Nc1ccn(C2OC(CO)C(O)C2(F)F)c(=O)n1 (stereo not given) + CN1CCN(c2cc(C(=O)Nc3cc4cc(-c5cnn(C)c5)ccc4cn3)ccn2)CC1
5.39

# return recorded viability, T/C for entry Cn1ncnc1[C@H]1c2n[nH]c(=O)c3cc(F)cc(c23)N[C@@H]1c1ccc(F)cc1 + CNC(=O)c1ccc(Nc2nc(OC3CCCC3)c3c(-c4ccc5nc(C)oc5c4)c[nH]c3n2)c(OC)c1
40.1

# return recorded viability, T/C for entry CC1COCCN1c1cc(C2(S(C)(=N)=O)CC2)nc(-c2ccnc3[nH]ccc23)n1 (stereo not given) + CNC(=O)c1ccc(Nc2nc(OC3CCCC3)c3c(-c4ccc5nc(C)oc5c4)c[nH]c3n2)c(OC)c1
45.1

# return recorded viability, T/C for entry CCN1CCN(Cc2ccc(Nc3ncc(F)c(-c4cc(F)c5nc(C)n(C(C)C)c5c4)n3)nc2)CC1 + CN1CCN(c2cc(C(=O)Nc3cc4cc(-c5cnn(C)c5)ccc4cn3)ccn2)CC1
6.1

###

Tested on: 628569-122-R-J1-PDC complex spheroid viability
ASSAY: Anticancer human tumor 628569-122-R-J1-PDC cell line growth inhibition [CLK];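 further: spheroids exposed to agents for seven days before readout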;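 on viability, T/C: 100% = DMSO vehicle control viability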
STATED CONDITIONS: second compound 10 µM; first compound 3.16 µM; stronger effect = lower value
ENDPOINT LABEL: viability, T/C (%)
Expressed in %, but write only the number.

MOLECULE	UNITS LABEL	VALUE
CC1COCCN1c1cc(C2(S(C)(=N)=O)CC2)nc(-c2ccnc3[nH]ccc23)n1 (centres undefined) + CN1CCN(c2cc(C(=O)Nc3cc4cc(-c5cnn(C)c5)ccc4cn3)ccn2)CC1	%	4.88
CC(=O)O[C@H]1C(=O)[C@@]2(C)[C@H]([C@H](OC(=O)c3ccccc3)[C@]3(O)C[C@H](OC(=O)[C@H](O)[C@@H](NC(=O)c4ccccc4)c4ccccc4)C(C)=C1C3(C)C)[C@]1(OC(C)=O)CO[C@@H]1C[C@@H]2O + CNC(=O)c1ccc(Nc2nc(OC3CCCC3)c3c(-c4ccc5nc(C)oc5c4)c[nH]c3n2)c(OC)c1	%	65
C=CC(=O)N1CCN(c2nc(=O)n(-c3c(C)ccnc3C(C)C)c3nc(-c4c(O)cccc4F)c(F)cc23)C(C)C1 (centres undefined) + CNC(=O)c1ccc(Nc2nc(OC3CCCC3)c3c(-c4ccc5nc(C)oc5c4)c[nH]c3n2)c(OC)c1	%	44.7

State the measured viability, T/C (628569-122-R-J1-PDC complex spheroid viability) of C=CC(=O)N1CCN(c2nc(=O)n(-c3c(C)ccnc3C(C)C)c3nc(-c4c(O)cccc4F)c(F)cc23)C(C)C1 (centres undefined) + CN1CCN(c2cc(C(=O)Nc3cc4cc(-c5cnn(C)c5)ccc4cn3)ccn2)CC1
4.91

###

Tested on: 628569-122-R-J1-PDC complex spheroid viability
ASSAY: Anticancer human tumor 628569-122-R-J1-PDC cell line growth inhibition [CLK]; active means viability on the fitted dose curve at most 10% of control; inactive means the rest;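 further: spheroids exposed to agents for seven days before readout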
STATED CONDITIONS: second compound 10 µM; first compound 0.3 µM
From the text: A high-throughput screen of multi-cell type tumor spheroids was designed to identify active combinations of […] and targeted small molecules. Complex spheroids include a stromal component modeled by human endothelial cells (HUVEC) and fibroblasts modeled by human mesenchymal stem cells (MSCs). […] Compounds. […] If the clinical Cmax for an agent had not been determined, the highest concentration tested was 10 microM. […]
Returns: one label drawn from active, inactive

Completed entries (count: 2):
MOLECULE	CLASS LABEL
C=CC(=O)Nc1cc(Nc2nccc(-c3cn(C)c4ccccc34)n2)c(OC)cc1N(C)CCN(C)C + CN1CCN(c2cc(C(=O)Nc3cc4cc(-c5cnn(C)c5)ccc4cn3)ccn2)CC1	active
NC(=O)C(=Cn1cnc(-c2cc(C(F)(F)F)cc(C(F)(F)F)c2)n1)c1cncnc1 + CNC(=O)c1ccc(Nc2nc(OC3CCCC3)c3c(-c4ccc5nc(C)oc5c4)c[nH]c3n2)c(OC)c1	inactive

Here is another molecule to look at.
Per the records of this test, what outcome belongs to CC(C)CC(NC(=O)C(Cc1ccccc1)NC(=O)c1cnccn1)B(O)O (stereo not drawn) + CN1CCN(c2cc(C(=O)Nc3cc4cc(-c5cnn(C)c5)ccc4cn3)ccn2)CC1 ?
active

###

Tested on: 628569-122-R-J1-PDC complex spheroid viability
ASSAY: Anticancer human tumor 628569-122-R-J1-PDC cell line growth inhibition [CLK];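 further: spheroids exposed to agents for seven days before readout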
STATED CONDITIONS: curve of first compound; second compound 1 µM
ENDPOINT LABEL: IC50

COMPOUND	IC50
CC(=O)O[C@H]1C(=O)[C@@]2(C)[C@H]([C@H](OC(=O)c3ccccc3)[C@]3(O)C[C@H](OC(=O)[C@H](O)[C@@H](NC(=O)c4ccccc4)c4ccccc4)C(C)=C1C3(C)C)[C@]1(OC(C)=O)CO[C@@H]1C[C@@H]2O + CN1CCN(c2cc(C(=O)Nc3cc4cc(-c5cnn(C)c5)ccc4cn3)ccn2)CC1	< 31.6 nM

Read the next record carefully.
# return recorded IC50 for entry C#Cc1c(F)ccc2cc(O)cc(-c3ncc4c(N5CC6CCC(C5)N6)nc(OCC56CCCN5CC(F)C6)nc4c3F)c12 (configuration not stated) + CNC(=O)c1ccc(Nc2nc(OC3CCCC3)c3c(-c4ccc5nc(C)oc5c4)c[nH]c3n2)c(OC)c1
< 31.6 nM

###

Test system: 628569-122-R-J1-PDC complex spheroid viability
ASSAY: Anticancer human tumor 628569-122-R-J1-PDC cell line growth inhibition [CLK]; active = viability on the fitted dose curve at most 10% of control; inactive = the rest;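 further: spheroids exposed to agents for seven days before readout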
STATED CONDITIONS: second compound 10 µM; first compound 0.003 µM
Returns: one label drawn from active, inactive

Completed entries (count: 3):
MOLECULE	CLASS LABEL
C=CC(=O)Nc1cc(Nc2nccc(-c3cn(C)c4ccccc34)n2)c(OC)cc1N(C)CCN(C)C + CNC(=O)c1ccc(Nc2nc(OC3CCCC3)c3c(-c4ccc5nc(C)oc5c4)c[nH]c3n2)c(OC)c1	inactive
CC(C)CC(NC(=O)C(Cc1ccccc1)NC(=O)c1cnccn1)B(O)O (centres undefined) + CNC(=O)c1ccc(Nc2nc(OC3CCCC3)c3c(-c4ccc5nc(C)oc5c4)c[nH]c3n2)c(OC)c1	inactive
C=CC(=O)Nc1cc(Nc2nccc(-c3cn(C)c4ccccc34)n2)c(OC)cc1N(C)CCN(C)C + CN1CCN(c2cc(C(=O)Nc3cc4cc(-c5cnn(C)c5)ccc4cn3)ccn2)CC1	active

Here is another molecule to look at.
Per the records of this test, what outcome belongs to CC(C)CC(NC(=O)C(Cc1ccccc1)NC(=O)c1cnccn1)B(O)O (centres undefined) + CN1CCN(c2cc(C(=O)Nc3cc4cc(-c5cnn(C)c5)ccc4cn3)ccn2)CC1 ?
active

###

Test system: 628569-122-R-J1-PDC complex spheroid viability
ASSAY: Anticancer human tumor 628569-122-R-J1-PDC cell line growth inhibition [CLK];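 further: spheroids exposed to agents for seven days before readout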;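 on viability, T/C: 100% = DMSO vehicle control viability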
STATED CONDITIONS: second compound 0.0316 µM; first compound 0.01 µM; stronger effect = lower value
Form field: viability, T/C (one value per entry).
Expressed in %, but write only the number.

Worked cases, viability, T/C given:
COMPOUND	ENDPOINT LABEL	VALUE
CCc1c2c(nc3ccc(O)cc13)-c1cc3c(c(=O)n1C2)COC(=O)[C@]3(O)CC + CNC(=O)c1ccc(Nc2nc(OC3CCCC3)c3c(-c4ccc5nc(C)oc5c4)c[nH]c3n2)c(OC)c1	viability, T/C	47.5
CCN1CCN(Cc2ccc(Nc3ncc(F)c(-c4cc(F)c5nc(C)n(C(C)C)c5c4)n3)nc2)CC1 + CN1CCN(c2cc(C(=O)Nc3cc4cc(-c5cnn(C)c5)ccc4cn3)ccn2)CC1	viability, T/C	85.2

# return recorded viability, T/C for entry CCN1CCN(Cc2ccc(Nc3ncc(F)c(-c4cc(F)c5nc(C)n(C(C)C)c5c4)n3)nc2)CC1 + CNC(=O)c1ccc(Nc2nc(OC3CCCC3)c3c(-c4ccc5nc(C)oc5c4)c[nH]c3n2)c(OC)c1
94.4
